target: Microtubule-associated protein tau (Homo sapiens); assay: Inhibition of tau aggregation (unknown origin) in Escherichia coli BL21 (DE3) at 10 uM incubated overnight by thioflavin S based fluorescence analysis relative to control
test readout: inhibition (%)
State the answer as a number, implicitly in %.

State, in one line, measured inhibition of CC1=CC2Cc3nc4cc(Cl)ccc4c(NCCCCCCCCCNC(=O)c4cc(O)cc(O)c4)c3C(C1)C2 (stereo not drawn)
65.8

Recall and state the measured inhibition for CC1=CC2Cc3nc4cc(Cl)ccc4c(NCCCCCCCCC(=O)NCc4cc[nH]c(=O)c4)c3C(C1)C2 (stereo not drawn) .
20.9

Could you please provide reported inhibition for CC1=CC2Cc3nc4cc(Cl)ccc4c(NCCCCCCCCCNC(=O)c4cc(O)c5c(c4)C(=O)c4cccc(O)c4C5=O)c3C(C1)C2 (stereo not drawn) ? Thanks!
29.6

Please report inhibition for the following compound: CC1=CC2Cc3nc4cc(Cl)ccc4c(NCCCCCCCCCNS(=O)(=O)c4cn[nH]c4)c3C(C1)C2 (stereo not drawn)
55.5

Output measured inhibition for this item: CC1=CC2Cc3nc4cc(Cl)ccc4c(NCCCCCCCCC(=O)N4CCNC(=O)C4)c3C(C1)C2 (stereo not drawn)
15

Let me know recorded inhibition for CC1=CC2Cc3nc4cc(Cl)ccc4c(NCCCCCCCCC(=O)Nc4cn[nH]c4)c3C(C1)C2 (stereo not drawn) , thanks.
45.3

Assign inhibition to the following record: CC1=CC2Cc3nc4cc(Cl)ccc4c(NCCCCCCCCCNC(=O)c4ccc[nH]c4=O)c3C(C1)C2 (stereo not drawn)
48.5

Using the record for COc1cc(CNC(=O)CCCCCCCCNc2c3c(nc4cc(Cl)ccc24)CC2C=C(C)CC3C2)ccn1 (stereo not drawn) , state its measured inhibition.
41.6

###

experiment: Acute toxicity in zebra fish embryos assessed as lethality measured every 24 hrs for 72 hrs; design: species or system Danio rerio; details: zebrafish
test readout: LC50 at 72 h (µM)
Numbers only; they are read as µM.

Determine from records and report LC50 at 72 h for CC1=CC2Cc3nc4cc(Cl)ccc4c(NCCCCCCCCCNC(=O)c4ccc[nH]c4=O)c3C(C1)C2 (centres undefined)
57.8

Give the value of LC50 at 72 h reported for the following: COc1cc(CNC(=O)CCCCCCCCNc2c3c(nc4cc(Cl)ccc24)CC2C=C(C)CC3C2)ccn1 (centres undefined)
7.1

For the compound CC1=CC2Cc3nc4cc(Cl)ccc4c(NCCCCCCCCC(=O)Nc4cn[nH]c4)c3C(C1)C2 (centres undefined) , give its reported LC50 at 72 h.
69.1
